- Protocol details: AUC (0-24h) in Sprague-Dawley rat at 300 mg/kg, po after 10 days
- Format: ADME, organism-based
- Design: time < 24 hr, dose 300 mg/kg, route oral
- Assay conditions: plasma
Assay metric: AUC at 24 h (ng·h/mL)
Number only, in ng·h/mL; omit the unit.

// known answers, use as guide
C[C@H]1OC(=O)[C@@H]2C[C@@H]3CCCC[C@H]3[C@H](/C=C/c3ccc(-c4cccc(C(F)(F)F)c4)cn3)[C@H]12 :: 21000
C[C@H]1OC(=O)[C@@H]2C[C@@H]3C[C@H](O)CC[C@H]3[C@H](/C=C/c3ccc(-c4cccc(C(F)(F)F)c4)cn3)[C@H]12 :: 41000
C[C@H]1OC(=O)[C@@H]2C[C@H]3[C@@H](CCC[C@@H]3O)[C@H](/C=C/c3ccc(-c4cccc(C(F)(F)F)c4)cn3)[C@H]12 :: 150000

If you can, please state the reported AUC at 24 h value of C[C@H]1OC(=O)[C@@H]2C[C@@H]3C[C@@H](O)CC[C@H]3[C@H](/C=C/c3ccc(-c4cccc(C(F)(F)F)c4)cn3)[C@H]12 .
81000

Taken from ChEMBL document CHEMBL1139225.
